- target_desc: Hormone-sensitive lipase (Homo sapiens, UniProt Q05469)
- Sequence (Q05469 whole entry): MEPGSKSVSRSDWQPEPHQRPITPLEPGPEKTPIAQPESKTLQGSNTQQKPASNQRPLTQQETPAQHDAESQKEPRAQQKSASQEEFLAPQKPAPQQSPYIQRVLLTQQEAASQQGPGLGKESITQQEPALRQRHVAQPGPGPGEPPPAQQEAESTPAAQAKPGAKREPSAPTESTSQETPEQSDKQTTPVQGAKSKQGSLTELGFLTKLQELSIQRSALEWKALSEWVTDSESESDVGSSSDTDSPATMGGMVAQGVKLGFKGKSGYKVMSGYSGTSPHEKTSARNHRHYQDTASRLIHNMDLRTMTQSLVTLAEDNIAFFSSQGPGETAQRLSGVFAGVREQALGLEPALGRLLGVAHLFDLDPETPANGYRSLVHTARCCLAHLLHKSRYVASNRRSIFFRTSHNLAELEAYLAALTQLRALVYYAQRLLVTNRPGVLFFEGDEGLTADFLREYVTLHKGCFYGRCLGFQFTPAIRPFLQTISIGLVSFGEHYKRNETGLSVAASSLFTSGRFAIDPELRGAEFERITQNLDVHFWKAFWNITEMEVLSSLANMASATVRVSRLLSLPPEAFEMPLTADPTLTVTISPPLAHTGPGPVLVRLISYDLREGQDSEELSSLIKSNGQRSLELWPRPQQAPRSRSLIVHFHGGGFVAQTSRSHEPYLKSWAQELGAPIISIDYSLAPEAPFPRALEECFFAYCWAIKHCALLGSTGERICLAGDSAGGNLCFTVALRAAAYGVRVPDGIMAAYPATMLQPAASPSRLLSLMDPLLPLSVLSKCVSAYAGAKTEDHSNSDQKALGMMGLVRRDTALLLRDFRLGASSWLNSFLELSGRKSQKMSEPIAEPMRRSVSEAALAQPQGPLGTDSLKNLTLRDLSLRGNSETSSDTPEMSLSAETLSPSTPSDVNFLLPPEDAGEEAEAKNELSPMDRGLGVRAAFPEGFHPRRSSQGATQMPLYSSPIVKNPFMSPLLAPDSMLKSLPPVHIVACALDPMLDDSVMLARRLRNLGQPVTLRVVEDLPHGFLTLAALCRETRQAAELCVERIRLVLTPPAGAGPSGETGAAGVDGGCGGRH
- test_protocol: Inhibition of recombinant human hormone-sensitive lipase
Parameter IC50: see the listing below.

                                   compound                               target_desc  parameter  test_value
0  O=C(Oc1ccc(Oc2ccc(C(F)(F)F)cn2)cc1)N1CCCc2ccc(C(F)(F)F)cc21  Hormone-sensitive lipase (Homo sapiens, UniProt Q05469)       IC50      > 5 µM
1      CN(C)C(=O)Oc1ccc(Oc2ncc(Cl)cc2Cl)cc1  Hormone-sensitive lipase (Homo sapiens, UniProt Q05469)       IC50     > 50 µM
2  O=C(Oc1ccc(Oc2ccc(C(F)(F)F)cn2)cc1)N1CCC(O)CC1  Hormone-sensitive lipase (Homo sapiens, UniProt Q05469)       IC50      0.5 µM
3  CC(C)N(C)C(=O)Oc1ccc(Oc2ccc(C(F)(F)F)cn2)cc1  Hormone-sensitive lipase (Homo sapiens, UniProt Q05469)       IC50      > 5 µM
4  CN(C(=O)Oc1ccc(Oc2ccc(C(F)(F)F)cn2)cc1)C1CCCCC1  Hormone-sensitive lipase (Homo sapiens, UniProt Q05469)       IC50      > 5 µM

query: Any idea what its IC50 is? The compound is CCN(C(=O)Oc1ccc(Oc2ccc(C(F)(F)F)cn2)cc1)c1ccccc1
result: > 5 µM

query: Any idea what its IC50 is? The compound is CN(C(=O)Oc1ccc(Oc2ccccc2)cc1)c1ccccc1
result: > 5 µM

query: Any idea what its IC50 is? The compound is CC1CCCCN1C(=O)Oc1ccc(Oc2ccc(C(F)(F)F)cn2)cc1 (stereo unspecified)
result: > 5 µM

query: Any idea what its IC50 is? The compound is O=C(Oc1ccc(Oc2ccc(C(F)(F)F)cn2)cc1)N1CCc2ccccc21
result: > 3 µM

query: Any idea what its IC50 is? The compound is CN(C(=O)Oc1ccc(Oc2ccc(C(F)(F)F)cn2)cc1)C(C)(C)C
result: > 5 µM

query: Any idea what its IC50 is? The compound is O=C(Oc1ccc(Oc2ccc(C(F)(F)F)cn2)cc1)N1CCC(CO)CC1
result: 0.11 µM

* * *

- test_protocol: Oral bioavailability in Sprague-Dawley rat at 2.2 mg/kg, po
- Format: ADME, organism-based
- measurement_conditions: in vivo
Parameter bioavailability: see the listing below.
Express the result in % but write the number alone.

In [3]: df
Out[3]:
                                   compound  u  test_value
0  CN(C(=O)Oc1ccc(Oc2ccc(C(F)(F)F)cn2)cc1)c1ccccc1  %          16

query: Any idea what its bioavailability is? The compound is O=C(Oc1ccc(Oc2ccc(C(F)(F)F)cn2)cc1)N1CCC(CO)CC1
result: 10

* * *

- test_protocol: Clearance in Sprague-Dawley rat at 1.1 mg/kg, iv and 2.2 mg/kg, po
- Assay type: ADME, organism-based
- measurement_conditions: in vivo
parameter: clearance (mL/min/kg)
Express the result in mL/min/kg but write the number alone.

                                   compound  test_value
0  O=C(Oc1ccc(Oc2ccc(C(F)(F)F)cn2)cc1)N1CCC(CO)CC1          46

Please turn your attention to the following entry.
query: Any idea what its clearance is? The molecule is CN(C(=O)Oc1ccc(Oc2ccc(C(F)(F)F)cn2)cc1)c1ccccc1
result: 61

* * *

- test_protocol: Cmax in Sprague-Dawley rat at 1.1 mg/kg, iv and 2 mg/kg, po
- Format: ADME, organism-based
- measurement_conditions: in vivo
parameter: Cmax (ng/mL)
Express the result in ng/mL but write the number alone.

query: Any idea what its Cmax is? The compound is O=C(Oc1ccc(Oc2ccc(C(F)(F)F)cn2)cc1)N1CCC(CO)CC1
result: 60

* * *

- test_protocol: Drug level in Sprague-Dawley rat at 10 mg/kg, po after 1 hr
- Format: ADME, organism-based
- Set-up: dose 10 mg/kg, route oral
- measurement_conditions: in vivo, read-out: Drug uptake
parameter: concentration at 1 h (ng/mL)
Express the result in ng/mL but write the number alone.

In [3]: df
Out[3]:
                                   compound             parameter      u  test_value
0  O=C(Oc1ccc(Oc2ccc(C(F)(F)F)cn2)cc1)N1CCC(CO)CC1  concentration at 1 h  ng/mL         379

query: Any idea what its concentration at 1 h is? The compound is O=C(Oc1ccc(Oc2ccc(C(F)(F)F)cn2)cc1)N1CCC(O)CC1
result: 3200

* * *

Observed pIC50 for Cholinesterase (Homo sapiens, UniProt P06276), reported per entry below.
pIC50: −log10 of the molar value.

Check out these entries, answers already filled in.
>>> print(df.to_string())
                                   compound  parameter  test_value
0      CCCCNC(=O)Oc1ccc(Oc2ncc(Cl)cc2Cl)cc1      pIC50        4.72
1  O=C(Oc1ccc(Oc2ccc(C(F)(F)F)cn2)cc1)N1CCC(Cc2ccccc2)CC1      pIC50      < 4.30
2     CN(C(=O)Oc1ccc(Oc2ccccc2)cc1)c1ccccc1      pIC50      < 4.30
3  CN(C(=O)Oc1ccc(Oc2c(Cl)cncc2Cl)cc1)c1ccccc1      pIC50      < 4.30

query: Hello, I am looking for reported pIC50 with Cholinesterase (Homo sapiens, UniProt P06276) for O=C(Oc1ccc(Oc2ccc(C(F)(F)F)cn2)cc1)N1CCC(CO)CC1 . Could you help?
result: < 4.30

query: Hello, I am looking for reported pIC50 with Cholinesterase (Homo sapiens, UniProt P06276) for CN(Cc1ccccc1)C(=O)Oc1ccc(Oc2ccc(C(F)(F)F)cn2)cc1 . Could you help?
result: < 4.30

* * *

- test_protocol: Clearance in Sprague-Dawley rat at 1.2 mg/kg, iv and […] mg/kg, po
- Type: ADME, organism-based
- measurement_conditions: in vivo
parameter: clearance (mL/min/kg)
Express the result in mL/min/kg but write the number alone.

query: Any idea what its clearance is? The compound is O=C(Oc1ccc(Oc2ccc(C(F)(F)F)cn2)cc1)N1CCC(O)CC1
result: 9

* * *

- test_protocol: Oral bioavailability in Sprague-Dawley rat at 1 mg/kg, po
- Assay type: ADME, organism-based
- measurement_conditions: in vivo
parameter: bioavailability (%)
Express the result in % but write the number alone.

query: Any idea what its bioavailability is? The compound is O=C(Oc1ccc(Oc2ccc(C(F)(F)F)cn2)cc1)N1CCOCC1
result: 12
